Format: in vivo, human
Condition Info: human, non-enhancing tumor region, oral, 900 mg
Metric: concentration at 24 h (nM)

>>> numeric_readout("CN(C)C(=O)c1cc2cnc(Nc3ccc(N4CCNCC4)cn3)nc2n1C1CCCC1")
350

* * *

Format: in vivo, human
Condition Info: human, non-enhancing tumor region, oral, 900 mg
Metric: concentration at 2 h (nM)

>>> numeric_readout("CN(C)C(=O)c1cc2cnc(Nc3ccc(N4CCNCC4)cn3)nc2n1C1CCCC1")
510

* * *

Method Summary: plasma pharmacokinetics in recurrent glioblastoma patients
Type: in vivo, human
Condition Info: human, plasma, po, 900 mg
Metric: half-life (h)

>>> numeric_readout("CN(C)C(=O)c1cc2cnc(Nc3ccc(N4CCNCC4)cn3)nc2n1C1CCCC1 [ribociclib, Ribociclib]")
13.5

meta.source: paper PMC6863147
